Recorded PBM binding z-score by entry
- Test system: PPARg homodimer (NR concentration 180 nM)
- protocol-details: PBM binding z-score (relative to random genomic background probes); higher = stronger binding; sequences stand for … in GC…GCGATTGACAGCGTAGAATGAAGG
Format: numeric value only, no unit, no commentary.

Take a look at these entries with their results.
sequence_input=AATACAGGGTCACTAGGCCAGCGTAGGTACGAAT target_under_test="PPARg homodimer (NR concentration 180 nM)" endpoint="PBM binding z-score" experimental_value=1.64
sequence_input=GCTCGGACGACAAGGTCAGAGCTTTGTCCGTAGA target_under_test="PPARg homodimer (NR concentration 180 nM)" endpoint="PBM binding z-score" experimental_value=0.248
sequence_input=GGAACGAGGGCGAGTTGATAGCAGAGTTTGATGG target_under_test="PPARg homodimer (NR concentration 180 nM)" endpoint="PBM binding z-score" experimental_value=0.0249
sequence_input=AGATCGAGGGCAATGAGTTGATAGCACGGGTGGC target_under_test="PPARg homodimer (NR concentration 180 nM)" endpoint="PBM binding z-score" experimental_value=0.453
sequence_input=CCTAGCAGGCCAATCTGGGGCACTCAAGGCTTGA target_under_test="PPARg homodimer (NR concentration 180 nM)" endpoint="PBM binding z-score" experimental_value=-0.431

Return PBM binding z-score for the following sequence: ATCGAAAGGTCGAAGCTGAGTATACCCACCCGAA
1.49

Give the reported value of PBM binding z-score for this record: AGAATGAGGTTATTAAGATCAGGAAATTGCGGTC
0.657

###

- Tested on: RARb homodimer (NR concentration 270 nM)
- protocol-details: PBM binding z-score (relative to random genomic background probes); higher = stronger binding; sequences stand for … in GC…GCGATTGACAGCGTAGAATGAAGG
endpoint: PBM binding z-score
Could you respond with only the numeric value?

Completed entries (count: 8):
sequence_input=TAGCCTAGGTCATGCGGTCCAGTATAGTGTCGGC target_under_test="RARb homodimer (NR concentration 270 nM)" endpoint="PBM binding z-score" experimental_value=3.08
sequence_input=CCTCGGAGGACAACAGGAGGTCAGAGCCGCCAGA target_under_test="RARb homodimer (NR concentration 270 nM)" endpoint="PBM binding z-score" experimental_value=3.53
sequence_input=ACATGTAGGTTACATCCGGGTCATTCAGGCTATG target_under_test="RARb homodimer (NR concentration 270 nM)" endpoint="PBM binding z-score" experimental_value=3.01
sequence_input=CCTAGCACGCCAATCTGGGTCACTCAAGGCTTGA target_under_test="RARb homodimer (NR concentration 270 nM)" endpoint="PBM binding z-score" experimental_value=1.94
sequence_input=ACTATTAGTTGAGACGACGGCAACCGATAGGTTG target_under_test="RARb homodimer (NR concentration 270 nM)" endpoint="PBM binding z-score" experimental_value=-0.491
sequence_input=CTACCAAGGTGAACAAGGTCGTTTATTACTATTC target_under_test="RARb homodimer (NR concentration 270 nM)" endpoint="PBM binding z-score" experimental_value=2.34
sequence_input=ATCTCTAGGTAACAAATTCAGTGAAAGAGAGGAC target_under_test="RARb homodimer (NR concentration 270 nM)" endpoint="PBM binding z-score" experimental_value=0.688
sequence_input=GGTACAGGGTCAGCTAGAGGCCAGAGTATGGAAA target_under_test="RARb homodimer (NR concentration 270 nM)" endpoint="PBM binding z-score" experimental_value=3.27

Write down measured PBM binding z-score (RARb homodimer (NR concentration 270 nM)) for this sequence. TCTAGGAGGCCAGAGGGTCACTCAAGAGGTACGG
3.01

Fill in: PBM binding z-score on RARb homodimer (NR concentration 270 nM), entry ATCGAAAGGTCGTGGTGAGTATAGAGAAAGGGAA
2.85

Under RARb homodimer (NR concentration 270 nM), report PBM binding z-score for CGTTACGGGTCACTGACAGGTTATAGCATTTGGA
3.43

Param request: PBM binding z-score | system RARb homodimer (NR concentration 270 nM) | item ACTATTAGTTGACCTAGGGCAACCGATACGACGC
3.05

Quote PBM binding z-score with test system RARb homodimer (NR concentration 270 nM) for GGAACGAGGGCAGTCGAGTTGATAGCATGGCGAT
0.327

State, for RARb homodimer (NR concentration 270 nM), measured PBM binding z-score of the sequence listed here: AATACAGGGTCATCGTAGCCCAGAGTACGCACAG
3.25

Enter measured PBM binding z-score, system RARb homodimer (NR concentration 270 nM), for the sequence shown: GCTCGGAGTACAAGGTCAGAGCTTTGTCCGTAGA
2.65

###

- System: PPARg homodimer (NR concentration 180 nM)
- protocol-details: PBM binding z-score (relative to random genomic background probes); higher = stronger binding; sequences stand for … in GC…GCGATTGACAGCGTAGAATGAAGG
endpoint: PBM binding z-score
API note: the answer field is a bare number with no unit suffix.

Known results for sequences:
sequence_input=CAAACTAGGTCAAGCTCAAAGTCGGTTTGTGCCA target_under_test="PPARg homodimer (NR concentration 180 nM)" experimental_value=1.52
sequence_input=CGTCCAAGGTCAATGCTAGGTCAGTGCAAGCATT target_under_test="PPARg homodimer (NR concentration 180 nM)" experimental_value=4.69
sequence_input=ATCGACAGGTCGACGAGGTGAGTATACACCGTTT target_under_test="PPARg homodimer (NR concentration 180 nM)" experimental_value=0.58
sequence_input=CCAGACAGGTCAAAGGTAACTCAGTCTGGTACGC target_under_test="PPARg homodimer (NR concentration 180 nM)" experimental_value=2.75
sequence_input=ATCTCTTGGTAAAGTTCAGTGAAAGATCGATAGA target_under_test="PPARg homodimer (NR concentration 180 nM)" experimental_value=1.76
sequence_input=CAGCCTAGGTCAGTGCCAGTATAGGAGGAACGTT target_under_test="PPARg homodimer (NR concentration 180 nM)" experimental_value=0.587
sequence_input=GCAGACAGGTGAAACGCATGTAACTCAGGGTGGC target_under_test="PPARg homodimer (NR concentration 180 nM)" experimental_value=-0.716
sequence_input=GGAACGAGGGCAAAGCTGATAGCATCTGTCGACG target_under_test="PPARg homodimer (NR concentration 180 nM)" experimental_value=0.0511

Respond only with PBM binding z-score recorded for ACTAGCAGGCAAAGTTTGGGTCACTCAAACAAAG
0.153

Given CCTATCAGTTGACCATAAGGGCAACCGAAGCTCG , respond with its PBM binding z-score.
1.5

###

- Tested on: PXR homodimer (NR concentration 270 nM)
- protocol-details: PBM binding z-score (relative to random genomic background probes); higher = stronger binding; sequences stand for … in GC…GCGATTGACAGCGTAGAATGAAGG
# PBM binding z-score >= 1 gives true (1), anything below gives false (0)

// known answers, use as guide
sequence_input=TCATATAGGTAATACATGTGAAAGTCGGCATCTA classification="false (0)"
sequence_input=AGTCAAAGTTCATCTAGGTAACGTTAGATATGCT classification="true (1)"
sequence_input=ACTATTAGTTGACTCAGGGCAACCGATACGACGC classification="false (0)"
sequence_input=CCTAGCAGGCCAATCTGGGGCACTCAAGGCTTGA classification="false (0)"
sequence_input=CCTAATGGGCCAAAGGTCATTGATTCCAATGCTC classification="true (1)"
sequence_input=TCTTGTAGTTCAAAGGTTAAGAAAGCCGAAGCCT classification="false (0)"

Query sequence follows.
Reported PBM binding z-score reaches at least 1 for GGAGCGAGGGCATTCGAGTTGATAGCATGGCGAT ?
false (0)

###

- Tested on: LXRa:RXRa (NR concentration 270 nM, RXRa partner concentration 90 nM)
- protocol-details: PBM binding z-score (relative to random genomic background probes); higher = stronger binding; sequences stand for … in GC…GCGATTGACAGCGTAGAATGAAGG
endpoint: PBM binding z-score
The response must contain the number and no unit.

Completed entries (count: 3):
sequence_input=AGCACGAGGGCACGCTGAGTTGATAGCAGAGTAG experimental_value=0.602
sequence_input=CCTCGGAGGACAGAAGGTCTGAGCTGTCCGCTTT experimental_value=-0.47
sequence_input=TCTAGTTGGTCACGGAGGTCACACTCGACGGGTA experimental_value=3.28

Give the value of PBM binding z-score reported for the following: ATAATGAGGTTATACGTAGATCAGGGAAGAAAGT
2.55

###

- Test system: PPARg:RXRa 30nM:10nM, anti-RXR (NR concentration 30 nM, RXRa partner concentration 10 nM)
- protocol-details: PBM binding z-score (relative to random genomic background probes); higher = stronger binding; sequences stand for … in GC…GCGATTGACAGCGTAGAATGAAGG
Heads up, the class ranges for PBM binding z-score are lower band (below 0.3), central band (0.3 to below 1), upper band (1 or more)

sequence_input=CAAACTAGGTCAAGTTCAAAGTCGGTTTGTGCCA classification="upper band"
sequence_input=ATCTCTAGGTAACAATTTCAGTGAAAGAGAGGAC classification="central band"
sequence_input=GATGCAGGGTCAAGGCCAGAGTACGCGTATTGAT classification="upper band"
sequence_input=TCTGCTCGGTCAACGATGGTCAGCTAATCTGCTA classification="upper band"

Could you place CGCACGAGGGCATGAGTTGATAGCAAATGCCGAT in its proper category? Many thanks.
lower band

# bin label for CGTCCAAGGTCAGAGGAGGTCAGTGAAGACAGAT
central band

Exam item: assign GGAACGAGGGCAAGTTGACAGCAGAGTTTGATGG to the correct category.
central band

Note: place this sequence into its band. Item: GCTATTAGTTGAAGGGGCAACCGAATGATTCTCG
central band

Hey, which category is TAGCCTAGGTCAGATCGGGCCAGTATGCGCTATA in, do you know?
lower band
